test system: NIH3T3; assay: Cytotoxic Profiling of Annotated Libraries Using Quantitative High-Throughput Screening (AID 1296008); details: Five cell lines viability, CellTiter-Glo ATP luminescence, 48-72 h; active compounds read low; further: on the % scale 0 is the no-effect control and ±100 the full control effect; nearly all actives have a fitted effect of over 60% in size
Inconclusive results are not listed.
Observation Type: max response (%)
Use % as the unit, but write only the number.

As a guide, the following entries are already answered.
Cc1ccccc1NC(=O)Nc1ccc(CN2C(=O)N([C@@H](CC(C)C)C(=O)N[C@@H](CC(=O)O)c3ccccc3)C(=O)C2(C)C)cc1 = -0.819
C=C1C(OC(C)=O)C(=O)C2C(C)(C)C(O)CCC2(C)C1CC(OC(C)=O)/C(C)=C/COC(C)=O (configuration not stated) = -4.73
C/C=C(/C)C(=O)O[C@H]1C[C@]2(C)O[C@@H]2[C@@H](OC(C)=O)[C@@]2(C)CC[C@@](O)(C(C)C)[C@H]12 = -1.87

Given the compound `C=C1CC[C@@H]2[C@](C)(CO)[C@H](O[C@@H]3O[C@H](CO)[C@@H](O)[C@H](O)[C@H]3O)CC[C@@]2(C)[C@@H]1C/C=C1/C(=O)OC[C@H]1O` , what is its reported max response? -0.313

Given the compound `NC[C@H]1CCC[C@@H](CNC(=O)[C@@H](Cc2c[nH]c3ccccc23)NC(=O)N2CCC3(C=Cc4ccccc43)CC2)C1` , what is its reported max response? -1.79

Given the compound CC(=O)OC1CC2C(C)(C)C(=O)C=CC2(C)C2CC(=O)C3=C(CCC3C3=CC(O)OC3=O)C12C (configuration not stated) , what is its reported max response? 0.622

Given the compound C/C(CO)=C1/CCC23COC(C2)C(O)(C(=O)O)CCC13 (configuration not stated) , what is its reported max response? -0.495
